# Test system: E. coli bacteria (ATCC 25922)
# METHOD_NOTES: Broth microdilution antibacterial assay (MIC) in Mueller–Hinton broth, pH 5
# Format: cell-based
# CONDITION_CONTEXT: E. coli, Mueller–Hinton broth pH 5; x50 from Origin fits of the growth curves of Figure 3 (concentration range 100 µM to 0.52 µM); fit error given; * error estimated in the range of the 1.5-fold dilution steps
# Method: Therefore, the antibacterial properties of both series of peptides were analyzed in Mueller–Hinton (MH) broth at pH 5 by determining the minimal inhibitory concentrations (MICs). […] The antimicrobial testing was carried out in 96-well microplates (sterile polystyrene untreated with F-bottom, Thermo Scientific Nunc A/S, Roskilde, Denmark). […] The microplates were incubated at 37 °C for 12 h before bacterial growth was assessed by measuring the OD600. […]
Attribute: MIC50
Express it in µM; write the number only.

Below, 3 substances whose answers are already recorded.
[[record]]
substance = "H-KKALLLAALHHLLALAHHLAALLKKA-NH2 [LAH4-A3, isomer of LAH4, LAH4-An series]"
recorded_metric = "MIC50"
units_symbol = "µM"
test_value = 7.5

[[record]]
substance = "H-KKALLLAALHHLAALALHLAHLLKKA-NH2 [LAH4-A2, isomer of LAH4, LAH4-An series]"
recorded_metric = "MIC50"
units_symbol = "µM"
test_value = 5

[[record]]
substance = "H-KKALLHAALAHLLALAHHLLALLKKA-NH2 [LAH4-A4, isomer of LAH4, LAH4-An series, also named Vectofusin-1]"
recorded_metric = "MIC50"
units_symbol = "µM"
test_value = 6


Consider H-KKALLALALHHLALLAHHLALALKKA-NH2 [LAH4-L3, isomer of LAH4, LAH4-Ln series] . Its measured MIC50 is 1.4

Consider H-KKALLHALLAALLAHLHALLAHLKKA-NH2 [LAH4-A6, isomer of LAH4, LAH4-An series] . Its measured MIC50 is 2.9

Consider H-KKALLHALLAHLAALLHALLAHLKKA-NH2 [LAH4-A5, isomer of LAH4, LAH4-An series] . Its measured MIC50 is 5.3

Consider H-KKALLALALHHLALLALHLAHALKKA-NH2 [LAH4-L2, isomer of LAH4, LAH4-Ln series] . Its measured MIC50 is 4.7
